# Inhibition listing for each entry below
- System: HepG2
- protocol text: GSK_TCMDC: Percent inhibition of human HepG2 cell line. Test compounds present at 10uM.
- Type: functional
Give the value, in units of %, as a plain number.

Solved cases below.
> print(dat)
                                   compound  reported.measurement
1  Cc1cccc2nc(-c3cccc(-c4ccc(CN5CCN(CCO)CC5)cc4)c3)[nH]c12.O=C(O)C(F)(F)F                    12
2  Nc1c(Cl)cc(C(O)CNCCCCCCCCCc2ccccn2)cc1Cl (stereo not given)                     9
3  CNc1nc(N/N=C/c2cc3c(cc2[N+](=O)[O-])OCO3)nc(Nc2cccc(C(F)(F)F)c2)n1                     0

// query Please give the documented Inhibition of O=C(NCCCN1CCC(N2CCCCC2)CC1)c1ccc2nc(N3CCCCC3)sc2c1
// result 11

// query Please give the documented Inhibition of CCc1c(C)c2ccc3c(c2oc1=O)CN(CCc1ccc(F)cc1)CO3
// result 0

// query Please give the documented Inhibition of CCCc1ccc(NC(=O)c2ccc(CN3CCCN(Cc4ccc(OC)cc4)CC3)cc2)cc1.O=C(O)C(F)(F)F
// result 47

// query Please give the documented Inhibition of CC(C)n1nc(C(=O)N2CCN(c3ccccc3)CC2)c2ccccc2c1=O
// result 34

// query Please give the documented Inhibition of CCOC(=O)CCCCOc1c(OC)cc(Cc2cnc(N)nc2N)cc1OC
// result 0

// query Please give the documented Inhibition of CC(C)Cc1ccc(N2CCN(CCCCNC(=O)c3ccc(NC(=O)c4ccc(Cl)c(Cl)c4)cc3)CC2)cc1
// result 21

// query Please give the documented Inhibition of CCN(c1ccccc1)S(=O)(=O)c1ccc(NC(=O)c2cc(-c3cc(C)ccc3O)n[nH]2)cc1
// result 49

// query Please give the documented Inhibition of Nc1cc(-c2ccc(-c3cccs3)s2)nc2ccccc12
// result 32
